Test system: Bacillus subtilis
Experiment: Antimicrobial activity against Bacillus subtilis by CLSI method
Format: functional
Conditions: Bacillus subtilis; read-out: MIC100
Checkbox rule: MIC lower than 1 mg/L = true; MIC not lower than 1 mg/L = false.

Req: Does CO/N=C(\C(=O)N[C@@H]1C(=O)N2C(C(=O)O)=C(CSc3nc(=O)c(=O)[nH]n3C)CS[C@H]12)c1csc(N)n1.[Na+] have MIC strictly under 1 mg/L?
Resp: true

Req: Does COc1ccc(N2C(=O)C(CCCCCCCC(=O)N[C@@H]3C(=O)N4C(C(=O)[O-])=C(COC(C)=O)CS[C@H]34)C2c2ccccc2)cc1.[Na+] (mixture of isomers) have MIC strictly under 1 mg/L?
Resp: true

Req: Does CC(=O)OCC1=C(C(=O)[O-])N2C(=O)[C@@H](NC(=O)CCCCCCCC3C(=O)N(c4ccccc4)C3c3ccccc3)[C@H]2SC1.[Na+] (mixture of isomers) have MIC strictly under 1 mg/L?
Resp: true

Req: Does CC(=O)OCC1=C(C(=O)[O-])N2C(=O)[C@@H](NC(=O)CC3C(=O)N(c4ccc(C)c(C)c4)C3c3ccccc3)[C@H]2SC1.[Na+] (mixture of isomers) have MIC strictly under 1 mg/L?
Resp: false

Req: Does CC(=O)OCC1=C(C(=O)[O-])N2C(=O)[C@@H](NC(=O)CC3C(=O)N(c4ccccc4)C3c3ccccc3)[C@H]2SC1.[Na+] (mixture of isomers) have MIC strictly under 1 mg/L?
Resp: false

Req: Does CC(=O)OCC1=C(C(=O)[O-])N2C(=O)[C@@H](NC(=O)CCCCCC3C(=O)N(c4ccccc4)C3c3ccccc3)[C@H]2SC1.[Na+] (mixture of isomers) have MIC strictly under 1 mg/L?
Resp: true

* * *

Test system: Salmonella typhimurium
Test: Antimicrobial activity against Salmonella enterica LT2 ATCC 700720 by CLSI method
Assay type: functional, Salmonella enterica subsp. enterica serovar Typhimurium
Conditions: Salmonella enterica, LT2 ATCC 700720; read-out: MIC100
MIC values by entry

CC(=O)OCC1=C(C(=O)[O-])N2C(=O)[C@@H](NC(=O)CCCCCC3C(=O)N(c4ccccc4)C3c3ccccc3)[C@H]2SC1.[Na+] (mixture of isomers) :: > 256 µg/mL

Req: Please list MIC recorded for the compound CO/N=C(\C(=O)N[C@@H]1C(=O)N2C(C(=O)O)=C(CSc3nc(=O)c(=O)[nH]n3C)CS[C@H]12)c1csc(N)n1.[Na+]
Resp: 0.25 µg/mL

Req: Please list MIC recorded for the compound COc1ccc(N2C(=O)C(CC(=O)N[C@@H]3C(=O)N4C(C(=O)[O-])=C(COC(C)=O)CS[C@H]34)C2c2ccc([N+](=O)[O-])cc2)cc1.[Na+] (mixture of isomers)
Resp: > 256 µg/mL

Req: Please list MIC recorded for the compound CC(=O)OCC1=C(C(=O)[O-])N2C(=O)[C@@H](NC(=O)CC3C(=O)N(c4ccccc4)C3c3ccccc3)[C@H]2SC1.[Na+] (mixture of isomers)
Resp: > 256 µg/mL

* * *

Test system: Escherichia coli
Assay: Antimicrobial activity against Escherichia coli JM107 by CLSI method
Type: functional
Details: Escherichia coli, JM107
MEASURED QUANTITY: MIC50

Worked examples, 4 molecules total:
COc1ccc(N2C(=O)C(CC(=O)N[C@@H]3C(=O)N4C(C(=O)[O-])=C(COC(C)=O)CS[C@H]34)C2c2ccc([N+](=O)[O-])cc2)cc1.[Na+] (mixture of isomers) :: > 256 µg/mL
CC(=O)OCC1=C(C(=O)[O-])N2C(=O)[C@@H](NC(=O)CCC3C(=O)N(c4ccc(C)c(C)c4)C3c3ccccc3)[C@H]2SC1.[Na+] (mixture of isomers) :: > 256 µg/mL
CC(=O)OCC1=C(C(=O)[O-])N2C(=O)[C@@H](NC(=O)CC3C(=O)N(c4ccccc4)C3c3ccccc3)[C@H]2SC1.[Na+] (mixture of isomers) :: > 256 µg/mL
CC(=O)OCC1=C(C(=O)[O-])N2C(=O)[C@@H](NC(=O)CCCCCCCC3C(=O)N(c4ccccc4)C3c3ccccc3)[C@H]2SC1.[Na+] (mixture of isomers) :: > 256 µg/mL

Req: Please list MIC50 recorded for the molecule COc1ccc(N2C(=O)C(CCCCCCCC(=O)N[C@@H]3C(=O)N4C(C(=O)[O-])=C(COC(C)=O)CS[C@H]34)C2c2ccccc2)cc1.[Na+] (mixture of isomers)
Resp: > 256 µg/mL

Req: Please list MIC50 recorded for the molecule CC(=O)OCC1=C(C(=O)[O-])N2C(=O)[C@@H](NC(=O)CC3C(=O)N(c4ccc(C)c(C)c4)C3c3ccccc3)[C@H]2SC1.[Na+] (mixture of isomers)
Resp: > 256 µg/mL
